system: HA of H5N1 A/Vietnam/1194/04 (influenza A virus)
procedureDetails: cell-based or functional assay
measuredAttribute: VNA titer (nM)
# value in nM; strip the unit string

Known VNA titer results, listed for orientation:
1. SD1034 (VHH) VHH: EVQLVESGGGLVQAGGSLRLSCAASGTIFGIRVNTMGWYRQAPGEQRELVATITRSGGTNYADSVKDRFTISGDFAKDTVYLQMMHLKPEDTAVYYCNGRWALTDYWGQGTQVTVSS | 722
2. SD1045 (VHH) VHH: EVQLVESGGGLVQAGGSLRLSCAASGSSFSINVMGWYRQAPGKQREMVATITYGGSTNYVDSVKGRFTISRDNAKNTVYLQMNSLKPEDTAVYYCNSRLAQINYWGQGTQVTVSS | 63.5
3. SD1073 (VHH) VHH: EVQLVESGGGLVQAGGSLRLSCAASGSAFSIAAMGWYRQAPGKQRELVATITTGGSTNYADSVKGRFTISRDNSKNTAYLQMNSLKPEDTAVYYCTAKSVVAETFGDLYNYWGQGTQVTVSS | 224

Moving on to another binder below.
[ask] Which VNA titer is reported for this binder? SD1074 (VHH) VHH: EVQLVESGGGLVQAGGSLRLSCAASRNFDAIGAMGWYRQAPGKQRELVAEITSDGSTNYTDSVKGRFTISRDNALRTMYLQMNALEPEDTAVYYCKADISIYGLTNFPYWGQGTQVTVSS
[reply] 638
